Catalogue of Ratio OD(Variant)/OD(WT) values
Target: HRgpA-6H (Porphyromonas gingivalis) (UniProt P28784)
Experiment: ELISA, coated HRgpA-6H

binder	Ratio OD(Variant)/OD(WT)
KB001 mouse Fab VH S56M (Fab, V domains shown) VH: EVQLKQSGPGLVAPSQSLSITCTVSGFSLSIYSVHWVRQPPGKGLEWLGMIWGGGMSDYNSALKSRLSISKDNSKSQVFLKMNSLQTDDTAMYYCARNGNFYAMDYWGQGTSVTVSS VL: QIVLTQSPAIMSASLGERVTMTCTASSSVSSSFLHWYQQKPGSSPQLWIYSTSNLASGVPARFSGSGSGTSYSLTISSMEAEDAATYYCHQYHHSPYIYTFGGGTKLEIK	0.92
KB001 mouse Fab VH S57R (Fab, V domains shown) VH: EVQLKQSGPGLVAPSQSLSITCTVSGFSLSIYSVHWVRQPPGKGLEWLGMIWGGGSRDYNSALKSRLSISKDNSKSQVFLKMNSLQTDDTAMYYCARNGNFYAMDYWGQGTSVTVSS VL: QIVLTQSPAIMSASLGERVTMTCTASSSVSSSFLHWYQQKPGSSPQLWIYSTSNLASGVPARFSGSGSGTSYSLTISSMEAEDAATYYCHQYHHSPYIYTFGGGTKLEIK	0.905
KB001 mouse Fab VH Y59M/S57I (Fab, V domains shown) VH: EVQLKQSGPGLVAPSQSLSITCTVSGFSLSIYSVHWVRQPPGKGLEWLGMIWGGGSIDMNSALKSRLSISKDNSKSQVFLKMNSLQTDDTAMYYCARNGNFYAMDYWGQGTSVTVSS VL: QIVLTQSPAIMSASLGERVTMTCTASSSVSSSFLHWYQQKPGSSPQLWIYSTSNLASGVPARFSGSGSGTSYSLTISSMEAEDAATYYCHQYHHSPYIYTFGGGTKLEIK	0.886
KB001 mouse Fab VH G26N (Fab, V domains shown) VH: EVQLKQSGPGLVAPSQSLSITCTVSNFSLSIYSVHWVRQPPGKGLEWLGMIWGGGSSDYNSALKSRLSISKDNSKSQVFLKMNSLQTDDTAMYYCARNGNFYAMDYWGQGTSVTVSS VL: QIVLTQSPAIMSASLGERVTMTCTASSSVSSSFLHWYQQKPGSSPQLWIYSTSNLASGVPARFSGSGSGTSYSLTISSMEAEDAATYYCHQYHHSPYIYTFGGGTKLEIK	0.876
